The reported numbers originate from ChEMBL document CHEMBL4825686.

Target: Neuronal acetylcholine receptor subunit alpha-7 (Homo sapiens)
Sequence (P36544 whole entry): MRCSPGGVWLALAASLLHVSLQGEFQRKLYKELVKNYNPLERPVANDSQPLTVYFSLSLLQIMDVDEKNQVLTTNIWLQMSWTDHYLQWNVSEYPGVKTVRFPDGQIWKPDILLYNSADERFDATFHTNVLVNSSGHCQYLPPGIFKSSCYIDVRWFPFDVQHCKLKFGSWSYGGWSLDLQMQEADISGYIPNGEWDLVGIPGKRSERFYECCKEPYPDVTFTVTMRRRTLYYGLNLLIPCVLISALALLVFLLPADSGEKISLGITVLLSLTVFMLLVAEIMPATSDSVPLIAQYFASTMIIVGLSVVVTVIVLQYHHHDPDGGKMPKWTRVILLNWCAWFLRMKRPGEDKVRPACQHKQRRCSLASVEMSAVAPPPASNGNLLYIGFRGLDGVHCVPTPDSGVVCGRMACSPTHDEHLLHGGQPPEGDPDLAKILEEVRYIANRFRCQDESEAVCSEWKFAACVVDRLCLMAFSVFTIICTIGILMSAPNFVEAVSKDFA
Assay: Positive allosteric modulator activity at human alpha7 nAChR expressed in Flp-In-HEK293 cells co-expressing RIC-3 assessed as potentiation of PNU282987-induced calcium influx measured after 10 mins by FLIPR assay
Format: cell-based, Flp-In-293
Settings: read-out: EC50
quantity-measured: pEC50
On this scale, pEC50 is minus log10 of a concentration expressed in M (mol/L).

Some solved cases for reference:
{"columns": ["compound", "pEC50"],
 "data": [
  ["Cc1ccc(CN2CCN(C(=O)C(=O)Nc3ccc4c(ccn4C)c3)CC2)cc1", 7.05],
  ["Cc1ccc(Oc2cnc(C(=O)C(=O)Nc3ccc4c(ccn4C)c3)cn2)cc1", 6.19],
  ["Cn1ccc2cc(CNC(=O)N3CC(COc4ccc(C(F)(F)F)cc4)C3)ccc21", 7.10]
]}

Which pEC50 is listed for Cc1ccc(Oc2ccc(C(=O)C(=O)Nc3ccc4c(ccn4C)c3)cc2)cc1 ?
7.22

Which pEC50 is listed for COc1ccc(OCC2CN(C(=O)NCc3ccc4c(ccn4C)c3)C2)cc1 ?
7.22

Which pEC50 is listed for Cc1ccc(CN2CCN(C(=O)C(=O)Nc3cc4ccn(C)c4cc3F)CC2)cc1 ?
6.05

Which pEC50 is listed for Cc1ccc(CN2CCN(C(=O)C(=O)Nc3ccc4c(c3)CCN4C)CC2)cc1 ?
6.09

Which pEC50 is listed for Cc1ccc(OCC2CN(C(=O)NCc3ccc4c(ccn4C)c3)C2)cc1 ?
7.40

Which pEC50 is listed for Cc1ccc(OC2CCN(C(=O)NCc3ccc4c(ccn4C)c3)C2)cc1 (stereo not given) ?
6.77

Which pEC50 is listed for Cc1ccc(CN2CCN(C(=O)c3nnc(-c4cccc5c4ccn5C)o3)CC2)cc1 ?
6.18
